B1: library; numbered along this chain (parent)
chain: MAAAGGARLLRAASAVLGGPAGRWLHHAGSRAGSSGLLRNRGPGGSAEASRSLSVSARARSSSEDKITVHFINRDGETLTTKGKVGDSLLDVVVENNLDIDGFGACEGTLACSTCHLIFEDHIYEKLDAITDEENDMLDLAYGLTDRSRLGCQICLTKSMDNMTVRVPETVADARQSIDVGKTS

Variants of: B1
Assay: scaled log2 fold change in cell abundance, elesclomol vs control (0 = silent mean, 1 = nonsense mean) (scaled log2 ratio); higher = higher viability under elesclomol (loss of FDX1 cuproptosis function);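 note: variant abundance is its share of total variant reads in each endpoint sample, from next-generation sequencing of the integrated ORF PCR-amplified out of genomic DNA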
Conditions: with ABC1 FDX1 KO; elesclomol 5 nM; glucose 10 mM; 14 days
Decide by scaled log2 fold change: equal to or exceeding 0.3 means yes, less means no.

{"mutation-code": "T183W", "cat": "no"}
{"mutation-code": "A174D", "cat": "no"}
{"mutation-code": "A3L", "cat": "no"}
{"mutation-code": "V69M", "cat": "no"}
{"mutation-code": "A111V", "cat": "no"}
{"mutation-code": "R58D", "cat": "no"}
{"mutation-code": "E48G", "cat": "yes"}
{"mutation-code": "S113E", "cat": "yes"}
{"mutation-code": "N97C", "cat": "no"}
{"mutation-code": "E133I", "cat": "yes"}
{"mutation-code": "I154N", "cat": "yes"}
{"mutation-code": "S14W", "cat": "no"}
{"mutation-code": "Q153H", "cat": "yes"}
{"mutation-code": "T81E", "cat": "no"}
{"mutation-code": "E120M", "cat": "no"}
{"mutation-code": "C155S", "cat": "no"}
{"mutation-code": "T81I", "cat": "no"}
{"mutation-code": "C152S", "cat": "yes"}
{"mutation-code": "C112H", "cat": "yes"}
{"mutation-code": "D121Y", "cat": "no"}
{"mutation-code": "A4E", "cat": "no"}
{"mutation-code": "Q153G", "cat": "yes"}
{"mutation-code": "T145P", "cat": "no"}
{"mutation-code": "G6I", "cat": "no"}
{"mutation-code": "L38D", "cat": "no"}
{"mutation-code": "M137G", "cat": "no"}
{"mutation-code": "E120S", "cat": "no"}
{"mutation-code": "S184Q", "cat": "no"}
{"mutation-code": "D139F", "cat": "no"}
{"mutation-code": "S52L", "cat": "no"}
{"mutation-code": "T170E", "cat": "no"}
{"mutation-code": "A15K", "cat": "no"}
{"mutation-code": "G36K", "cat": "no"}
{"mutation-code": "G181F", "cat": "yes"}
{"mutation-code": "D99I", "cat": "no"}
{"mutation-code": "I178R", "cat": "no"}
{"mutation-code": "R8K", "cat": "no"}
